# credit: PubChem BioAssay (NCI)

- Test system: SR leukemia
- ASSAY EXPLANATION: NCI tumour cell line growth inhibition, 48 h
METRIC NAME: TGI

* C/C(=N\Nc1ccc(Cl)cn1)c1ccc2ccccc2n1 | 36.1 µM
* CNC(=S)/N=C(\N)N(C)C | > 100 µM
* CC1CCCCNC1=S (stereo not given) | > 10 µM
* O=C1c2ccccc2C(=O)C1(O)c1c[nH]c2ccccc12 | > 100 µM
* CC1S/C(=N\N=C2/C(=O)Nc3ccc(Br)cc32)N(C2CCCCC2)C1=O (stereo not given) | 39.4 µM
* COc1c(C)cc2c(c1O)C1C3[C@H]4SC[C@@]5(NCCC6=C5NC5C=CC=CC65)C(=O)OCC(c5c6c(c(C)c(OC(C)=O)c54)OCO6)N3[C@@H](O)C(C2)N1C (stereo not given in full) | > 100 µM
* COC(=O)C(Cc1nc2ccccc2[nH]c1=O)C(NO)C(=O)Nc1c(Cl)cc([N+](=O)[O-])cc1Cl (stereo not given) | > 100 µM
* Cc1[nH]c(=O)nc2[nH][nH]c(=O)c12 | > 100 µM
* CC(CC[C@@]1(C)C(=O)CCC2O[C@]21C)[C@H]1C[C@@H](c2ccoc2)OC1=O (stereo not given in full) | > 100 µM
* CC1(C)C[C@@H]2C1CCC1(C)CC2(O)CC[C@H]1O (stereo not given in full) | > 100 µM

---

Let's look at some compounds and their measured TGI.
- Test system: NCI-H522 lung
- ASSAY EXPLANATION: NCI tumour cell line growth inhibition, 48 h
METRIC NAME: TGI

• COc1ccc(C[N+](C)(C)N)cc1OC = > 100 µM
• CC(=O)O[C@H]1CCC2[C@@H]3CC[C@]4(C)CC(=O)C=C[C@]4(C)C3CC[C@@]21C (stereo partly specified) = 76.9 µM
• Nc1nc([O-])c2c(n1)[n+](C1OC(CO)C(O)C1O)cn2CCO (stereo unspecified) = > 100 µM
• COc1cc(OC)c(C(=O)/C=C/c2cccc(C(F)(F)F)c2)c(OC)c1 = 1.94 µM
• CC(C)=C[C@H]1CCC2(OCCO2)[C@]1(C)COCc1ccccc1 = 62.1 µM
• COC(=O)C12CC3CC(CC(C(=O)O)(C3)C1)C2 = > 100 µM
• c1ccc(Sc2ccc(Cc3nc4cc5ccccc5cc4[nH]3)cc2)cc1 = > 62.9 µM
• Cc1ccc(NC(=O)c2cccc(C(C)(C)C#N)c2)cc1Nc1ccc2ncn(C)c(=O)c2c1 = > 100 µM
• COc1cc2oc(-c3ccc(O)cc3)c(OC)c(=O)c2c(O)c1OC = > 100 µM
• CC1=C(/C=C/Cl)CC(Cl)C(C)(Cl)C1 (stereo unspecified) = > 100 µM
• CN1CCc2nc(N)nc(-c3nc(N)nc4c3CN(C)CC4)c2C1 = > 100 µM
• O=C(O)CNS(=O)(=O)c1ccc(NC(=O)c2ccc([N+](=O)[O-])cc2)cc1 = > 100 µM
• COc1ccc(CN2CC(C)(C)C2=O)c(OC)c1 = > 100 µM
• O=C1c2cccnc2-c2nc(-c3ccc(Cl)cc3)cc3c2c1nc1ccccc13 = > 100 µM
• CCOC(=O)c1ccc(N[C@@H]2c3cc4c(cc3C(c3cc(OC)c(O)c(OC)c3)[C@H]3C(=O)OCC32)OCO4)cc1O (stereo partly specified) = 2.07 µM
• CC(C)c1c(O)c(O)c2c(c1O)C(=O)C(O)=C1C(C)(C)CCC[C@@]12C = 13.4 µM
• Clc1cc(Cl)c2ns[s+]c2c1Cl = > 100 µM
• COc1cc(Br)cc2cc(-c3cn4c(n3)sc3ccccc34)c(=O)oc12 = 28.7 µM
• O=C(Nc1n[nH]c2cc(-c3ccccc3)ccc12)C1CC1 = > 25 µM
• CN(Cc1ccccc1)C(=O)c1ccccc1C(=O)O = > 100 µM
• CC1=CCC(O)C=CC(C)C(O)C(C)C=C(C)C(=O)c2c(O)c(C)cc3c2C(=O)C(N)=C(NC(=O)/C=C\C=C/C=CC(C)C(O)CC1=O)C3=O (stereo unspecified) = 35.3 µM
